Assay: Light absorption maxima and molar extinction coefficients
Format: physicochemical
Conditions: in water (W)
Exercise: state measured λmax Q for each of the molecules provided.
Answers are plain numbers.

Before answering, review these 2 worked examples.
[
  {
    "molecule": "O=S(=O)([O-])c1cccc(P(c2ccccc2)c2ccccc2)c1.O=S(=O)([O-])c1cccc(P(c2ccccc2)c2ccccc2)c1.[K+].[K+].c1ccc2cc3c(cc2c1)C1=NC2=NC(=Nc4c5cc6ccccc6cc5c5[n]4[Ru][n]4c(c6cc7ccccc7cc6c4=N5)=NC3=N1)c1cc3ccccc3cc12 [RuNc(TPPMS)2]",
    "λmax Q": 734
  },
  {
    "molecule": "O=C(O)c1cccnc1.O=C(O)c1cccnc1.c1ccc2cc3c(cc2c1)C1=NC3=Nc2c3cc4ccccc4cc3c3[n]2[Ru][n]2c(c4cc5ccccc5cc4c2=NC2=NC(=N3)c3cc4ccccc4cc32)=N1 [RuNc(Nic)2]",
    "λmax Q": 762
  }
]

Consider the following items and state reported λmax Q for each.
1. O=C(O)c1cncc(C(=O)O)c1.O=C(O)c1cncc(C(=O)O)c1.c1ccc2c(c1)C1=NC2=Nc2c3ccccc3c3[n]2[Ru][n]2c(c4ccccc4c2=NC2=NC(=N3)c3ccccc32)=N1 [RuPc(35PDCA)2]
2. O=C(O)c1cccnc1.O=C(O)c1cccnc1.c1cnc2c(n1)C1=NC2=Nc2c3nccnc3c3[n]2[Ru][n]2c(c4nccnc4c2=NC2=NC(=N3)c3nccnc32)=N1 [RupyrPc(Nic)2]
3. O=S(=O)([O-])c1cccc(P(c2cccc(S(=O)(=O)[O-])c2)c2cccc(S(=O)(=O)[O-])c2)c1.O=S(=O)([O-])c1cccc(P(c2cccc(S(=O)(=O)[O-])c2)c2cccc(S(=O)(=O)[O-])c2)c1.[Na+].[Na+].[Na+].[Na+].[Na+].[Na+].c1ccc2c(c1)C1=NC3=NC(=Nc4c5ccccc5c5[n]4[Ru][n]4c(c6ccccc6c4=N5)=NC2=N1)c1ccccc13 [RuPc(TPPTS)2]

Result block:
1: 632; 2: 625; 3: 650

---

Tested on: Adherent cells (HeLa RCA. SKOV OVCAR)
Assay: Phototoxicity (Light): 3H-thymidine incorporation in adherent cells after irradiation, with dark cytotoxicity for PI
Assay type: cell-based
Details: ratio of PC50 to cytotoxic concentration 50% (no light)
measurement_name: PI (phototoxicity index)

// below: answered compounds
[
  {
    "compound": "O=S(=O)([O-])c1cccnc1.O=S(=O)([O-])c1cccnc1.[Na+].[Na+].c1ccc2c(c1)C1=NC2=Nc2c3ccccc3c3[n]2[Ru][n]2c(c4ccccc4c2=NC2=NC(=N3)c3ccccc32)=N1",
    "PI (phototoxicity index)": "> 109"
  },
  {
    "compound": "O=S(=O)([O-])c1cccc(P(c2cccc(S(=O)(=O)[O-])c2)c2cccc(S(=O)(=O)[O-])c2)c1.O=S(=O)([O-])c1cccc(P(c2cccc(S(=O)(=O)[O-])c2)c2cccc(S(=O)(=O)[O-])c2)c1.[Na+].[Na+].[Na+].[Na+].[Na+].[Na+].c1ccc2c(c1)C1=NC3=NC(=Nc4c5ccccc5c5[n]4[Ru][n]4c(c6ccccc6c4=N5)=NC2=N1)c1ccccc13",
    "PI (phototoxicity index)": "> 15"
  },
  {
    "compound": "O=C(O)c1cccnc1.O=C(O)c1cccnc1.c1ccc2c(c1)C1=NC2=Nc2c3ccccc3c3[n]2[Ru][n]2c(c4ccccc4c2=NC2=NC(=N3)c3ccccc32)=N1",
    "PI (phototoxicity index)": "> 79"
  },
  {
    "compound": "O=C(O)c1cncc(C(=O)O)c1.O=C(O)c1cncc(C(=O)O)c1.c1ccc2c(c1)C1=NC2=Nc2c3ccccc3c3[n]2[Ru][n]2c(c4ccccc4c2=NC2=NC(=N3)c3ccccc32)=N1",
    "PI (phototoxicity index)": "> 5.6"
  }
]

Consider NCCS(=O)(=O)[O-].NCCS(=O)(=O)[O-].O.O.O.O.O.O.[Na+].[Na+].c1ccc2c(c1)C1=NC3=NC(=Nc4c5ccccc5c5[n]4[Ru][n]4c(c6ccccc6c4=N5)=NC2=N1)c1ccccc13 [RuPc(Tau)2 (Ex 3), Na2 [Ru(Pc)bis(taurine)]hexahydrate] . Its measured PI (phototoxicity index) is > 1.1
